- assay-system: rat Neonicotinoid receptor (NNR), Chrna7 (gene 25302)
- procedure-details: NVS_LGIC_rNNR_BungSens: NovaScreen (NVS) Ligand-Gated Ion Channel Assay for rat Neonicotinoid receptor (NNR) (AID 2283315)
- Method: NVS_LGIC_rNNR_BungSens is a biochemical, single-readout assay that uses extracted gene-proteins from Rat cortical membranes in a tissue-based cell-free assay. Measurements were taken 2.5 hours after chemical dosing in a 48-well plate.NVS_LGIC_rNNR_BungSens is one of one assay component(s) measured or calculated from the NVS_LGIC_rNNR_BungSens assay. […] Furthermore, this assay endpoint can be referred to as a primary readout, because the performed assay has only produced 1 assay endpoint. […]
Inconclusive results are not listed. Calls of active or inactive are those of the source. How the source made its calls: active means hit-call score of the fitted dose curve at least 0.9, where 1 is the maximum; inconclusive means response in the unintended direction; inactive means score below 0.9.
Result category, one only: active, inactive

Record excerpt, results attached:
CCOC1Oc2ccc(OS(C)(=O)=O)cc2C1(C)C (centres undefined) : inactive
O=[N+]([O-])/N=C1\NCCN1Cc1ccc(Cl)nc1 : active
COP(=S)(OC)Oc1ccc(SC)c(C)c1 : inactive

Attention now shifts to the item below.
Request: Can you look up the reported call for COP(=S)(OC)Oc1ccc([N+](=O)[O-])cc1 for me?
Result: inactive

These entries and their values trace back to PubChem BioAssay (EPA / NIEHS).
